Data credit: patent EP2340832A1

- experimentalSystem: electric eel AChE (EC 3.1.1.7) (Electrophorus electricus, UniProt O42275)
- Construct: purchased Sigma-Aldrich, Germany
- Sequence (O42275 24-633): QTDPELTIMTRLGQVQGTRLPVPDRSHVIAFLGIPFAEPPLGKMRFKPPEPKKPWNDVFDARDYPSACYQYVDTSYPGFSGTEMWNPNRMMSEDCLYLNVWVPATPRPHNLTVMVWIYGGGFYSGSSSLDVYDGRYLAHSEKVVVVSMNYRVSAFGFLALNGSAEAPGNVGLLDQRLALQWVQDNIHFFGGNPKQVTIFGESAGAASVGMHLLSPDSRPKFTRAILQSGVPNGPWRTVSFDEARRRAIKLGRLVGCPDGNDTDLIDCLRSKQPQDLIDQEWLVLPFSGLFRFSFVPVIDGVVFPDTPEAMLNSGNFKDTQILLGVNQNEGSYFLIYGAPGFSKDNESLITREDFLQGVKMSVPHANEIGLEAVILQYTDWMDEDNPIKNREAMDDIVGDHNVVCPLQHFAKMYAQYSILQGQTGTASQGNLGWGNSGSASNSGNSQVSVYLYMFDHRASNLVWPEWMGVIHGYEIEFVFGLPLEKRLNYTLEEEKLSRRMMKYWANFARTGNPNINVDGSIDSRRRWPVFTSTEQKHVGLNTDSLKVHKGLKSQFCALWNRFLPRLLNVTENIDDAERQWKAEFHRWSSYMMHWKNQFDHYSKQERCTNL
- protocolText: Spectrophotometric assay for AChE inhibitory activity (modified Ellman's method)
- Format: biochemical
- testParameters: 96-well microplate, 1% DMSO; read-out: AChE inhibitory activity IC50
Please respond with reported IC50 for every item in the list.
# number only, unit µM dropped from output

Returns the measured IC50 for the input compound. Input: `C=CCN1CC[C@]23CC(=O)CC[C@@]2(OC)[C@H]1Cc1cccc(OC)c13`
81.9

Could you share which IC50 value was measured for `O=CN1CC[C@]23CC(=O)CC[C@H]2[C@H]1CC1=C3C(=O)C=CC1=O` ?
12.7

Which value of IC50 has been reported for O=CN1CC[C@]23CC(=O)CC[C@H]2[C@H]1Cc1c(O)ccc(O)c13 [Compound 1, 1,4-dihydroxy-N-formylmorphinan-6-one] in the records?
105

Quick check: IC50 of `C=CCN1CC[C@]23CC(=O)CC[C@H]2[C@H]1Cc1cccc(OC)c13` ?
1

----------
- experimentalSystem: µ opioid receptor (Rattus norvegicus, UniProt P33535)
- Sequence (P33535 whole entry): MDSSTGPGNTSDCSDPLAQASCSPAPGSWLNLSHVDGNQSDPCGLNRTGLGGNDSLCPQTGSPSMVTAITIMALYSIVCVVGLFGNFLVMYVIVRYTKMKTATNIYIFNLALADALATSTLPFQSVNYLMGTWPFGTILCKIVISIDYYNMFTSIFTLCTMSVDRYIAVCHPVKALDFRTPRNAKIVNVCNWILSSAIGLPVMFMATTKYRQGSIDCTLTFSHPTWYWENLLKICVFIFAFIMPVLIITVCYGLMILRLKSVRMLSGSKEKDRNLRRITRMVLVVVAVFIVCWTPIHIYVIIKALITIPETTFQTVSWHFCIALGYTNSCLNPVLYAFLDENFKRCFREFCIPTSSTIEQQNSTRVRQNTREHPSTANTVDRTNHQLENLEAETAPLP
- protocolText: Opioid receptor binding assay, [3H]DAMGO, rat brain membranes
- Parameters: Membrane fractions were prepared from Sprague-Dawley rat or guinea pig brains; from tissue; host or cells: Sprague-Dawley rat brain (without cerebella) membranes; species or system Sprague-Dawley rat
- testParameters: [3H]DAMGO, rat brain membranes; read-out: Opioid binding affinities Ki µ receptor
pKi: −log10 of the molar value.
measuredQuantity: pKi

Provide value of pKi for this record tested with µ opioid receptor (Rattus norvegicus, UniProt P33535): O=CN1CC[C@]23CC(=O)CC[C@H]2[C@H]1CC1=C3C(=O)C=CC1=O [Compound 2, 1,4-dione-N-formylmorphinan-6-one]
< 5.00

----------
- experimentalSystem: k opioid receptors (Cavia porcellus, UniProt P41144)
- Construct: Membrane fractions were prepared from Sprague-Dawley rat or guinea pig brains; from tissue; host or cells: guinea pig brain (without cerebella) membranes
- Sequence (P41144 whole entry): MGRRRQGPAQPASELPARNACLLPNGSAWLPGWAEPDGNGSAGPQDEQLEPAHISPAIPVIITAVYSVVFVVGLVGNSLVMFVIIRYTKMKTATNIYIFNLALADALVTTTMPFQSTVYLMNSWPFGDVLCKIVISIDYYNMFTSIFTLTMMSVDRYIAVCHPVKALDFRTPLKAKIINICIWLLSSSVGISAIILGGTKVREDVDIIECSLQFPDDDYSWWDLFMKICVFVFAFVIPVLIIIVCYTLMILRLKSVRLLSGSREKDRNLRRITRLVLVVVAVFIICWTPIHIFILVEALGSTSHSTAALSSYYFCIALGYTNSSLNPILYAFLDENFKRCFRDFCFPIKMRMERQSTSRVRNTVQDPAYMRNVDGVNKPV
- protocolText: Opioid receptor binding assay, [3H]U69,593, guinea pig brain membranes
- testParameters: read-out: Opioid binding affinities Ki κ receptor; [3H]U69,593, guinea pig brain membranes
For each of the molecules below, state its Ki.

Give its Ki value. Item: O=CN1CC[C@]23CC(=O)CC[C@H]2[C@H]1Cc1c(O)ccc(O)c13 [Compound 1, 1,4-dihydroxy-N-formylmorphinan-6-one]
> 10 µM

Query (molecule): O=CN1CC[C@]23c4c5cccc4OC2C(=O)CC[C@H]3[C@H]1C5 (stereo in doubt) ; field requested: Ki
> 10 µM

----------
- experimentalSystem: δ opioid receptors (Rattus norvegicus)
- Construct: Membrane fractions were prepared from Sprague-Dawley rat or guinea pig brains; from tissue; host or cells: Sprague-Dawley rat brain (without cerebella) membranes
- Sequence (P33533 whole entry): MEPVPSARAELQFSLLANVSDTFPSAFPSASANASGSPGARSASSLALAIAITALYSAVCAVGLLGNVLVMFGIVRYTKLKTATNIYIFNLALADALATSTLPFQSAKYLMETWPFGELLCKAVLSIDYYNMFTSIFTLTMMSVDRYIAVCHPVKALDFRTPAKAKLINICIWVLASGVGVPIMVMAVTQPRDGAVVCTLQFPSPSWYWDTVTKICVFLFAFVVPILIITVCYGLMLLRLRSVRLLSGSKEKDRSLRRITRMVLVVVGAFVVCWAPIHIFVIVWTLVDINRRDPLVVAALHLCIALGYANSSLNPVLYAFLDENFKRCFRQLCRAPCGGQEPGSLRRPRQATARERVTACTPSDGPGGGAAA
- protocolText: Opioid receptor binding assay, [3H][Ile5,6]deltorphin II, rat brain membranes
- Design: species or system Sprague-Dawley rat
measuredQuantity: Ki (µM)
Your answer is read as µM, so omit the unit and give the number.

Under δ opioid receptors (Rattus norvegicus): Ki value of `C=CCN1CC[C@]23CC(=O)CC[C@@]2(OC)[C@H]1Cc1cccc(OC)c13` ?
1.25

Form entry - test system: δ opioid receptors (Rattus norvegicus); read-out: Ki; molecule: `C=CCN1CC[C@]23CC(=O)CC[C@H]2[C@H]1Cc1cccc(OC)c13`
0.316

----------
- experimentalSystem: µ opioid receptor (Rattus norvegicus, UniProt P33535)
- protocolText: Opioid receptor binding assay, [3H]DAMGO, rat brain membranes
- Design: Membrane fractions were prepared from Sprague-Dawley rat or guinea pig brains; from tissue; host or cells: Sprague-Dawley rat brain (without cerebella) membranes; species or system Sprague-Dawley rat
- testParameters: read-out: Opioid binding affinities Ki µ receptor; [3H]DAMGO, rat brain membranes
- Method: Briefly, brains without cerebella were homogenised on ice in 5 volumes of ice-cold 50 mM Tris-HCI buffer (pH 7.4) and diluted in 30 volumes of the same buffer. […] Protein concentration was determined by the method of Bradford using bovine serum albumin as standard. […] The morphinan-6-one compounds of the present invention were evaluated in in vitro receptor binding assays for their interaction abilities with µ, δ and k opioid receptors. […]
For each of the compounds below, state its Ki.

Request body: readout Ki, system µ opioid receptor (Rattus norvegicus, UniProt P33535), query O=CN1CC[C@]23CC(=O)CC[C@H]2[C@H]1Cc1c(O)ccc(O)c13 [Compound 1, 1,4-dihydroxy-N-formylmorphinan-6-one] . Return the value.
> 10 µM

Give Ki (µ opioid receptor (Rattus norvegicus, UniProt P33535)) of the following compound: O=CN1CC[C@]23c4c5cccc4OC2C(=O)CC[C@H]3[C@H]1C5 (stereo in doubt)
> 10 µM

----------
- experimentalSystem: µ opioid receptor (Rattus norvegicus, UniProt P33535)
- protocolText: Opioid receptor binding assay, [3H]DAMGO, rat brain membranes
- Parameters: Membrane fractions were prepared from Sprague-Dawley rat or guinea pig brains; from tissue; host or cells: Sprague-Dawley rat brain (without cerebella) membranes; species or system Sprague-Dawley rat
- testParameters: no specific binding; read-out: Ki, µ opioid receptor
measuredQuantity: Ki

For the compound shown here, O=CN1CC[C@]23CC(=O)CC[C@H]2[C@H]1CC1=C3C(=O)C=CC1=O [Compound 2, 1,4-dione-N-formylmorphinan-6-one] , give the reported Ki.
> 10 µM

----------
- experimentalSystem: µ opioid receptor (Rattus norvegicus, UniProt P33535)
- protocolText: Opioid receptor binding assay, [3H]DAMGO, rat brain membranes
- Parameters: Membrane fractions were prepared from Sprague-Dawley rat or guinea pig brains; from tissue; host or cells: Sprague-Dawley rat brain (without cerebella) membranes; species or system Sprague-Dawley rat
measuredQuantity: pKi
Would you please state pKi, meaning minus log10 of the concentration in mol/L, as a bare number?

Sample C=CCN1CC[C@]23CC(=O)CC[C@H]2[C@H]1Cc1cccc(OC)c13 [Compound 4, 4-methoxy-N-allylmorphinan-6-one] — what was its pKi?
7.69

What value of pKi has been reported for the following compound? C=CCN1CC[C@]23CC(=O)CC[C@@]2(OC)[C@H]1Cc1cccc(OC)c13 [Compound 5, 4,14-dimethoxy-N-allyl-morphinan-6-one]
7.17

----------
- experimentalSystem: σ receptors labelled by [^3H](+)-pentazocine (σ1) (Cavia porcellus, UniProt Q60492)
- Construct: from tissue; host or cells: guinea pig brain membranes
- Sequence (Q60492 whole entry): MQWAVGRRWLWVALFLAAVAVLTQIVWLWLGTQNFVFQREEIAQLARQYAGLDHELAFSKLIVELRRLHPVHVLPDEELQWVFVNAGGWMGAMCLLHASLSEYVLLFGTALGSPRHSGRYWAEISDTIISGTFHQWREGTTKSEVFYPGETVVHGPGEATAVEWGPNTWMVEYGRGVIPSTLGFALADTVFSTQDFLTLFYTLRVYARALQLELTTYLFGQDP
- protocolText: Sigma receptor binding assay, [3H](+)-pentazocine
- Design: species or system guinea pig
pIC50: −log10 of the molar value.
measuredQuantity: pIC50

Form field: pIC50 recorded for C=CCN1CC[C@]23CC(=O)CC[C@@]2(OC)[C@H]1Cc1cccc(OC)c13 [Compound 5, 4,14-dimethoxy-N-allyl-morphinan-6-one] with σ receptors labelled by [^3H](+)-pentazocine (σ1) (Cavia porcellus, UniProt Q60492) (enter value)
< 5.00

What pIC50 appears in the records for this compound with σ receptors labelled by [^3H](+)-pentazocine (σ1) (Cavia porcellus, UniProt Q60492)? C=CCN1CC[C@]23CC(=O)CC[C@H]2[C@H]1Cc1cccc(OC)c13 [Compound 4, 4-methoxy-N-allylmorphinan-6-one]
< 8.00

Kindly state the measured pIC50 obtained for O=CN1CC[C@]23c4c5cccc4OC2C(=O)CC[C@H]3[C@H]1C5 (stereo in doubt) [Compound 3, 4,5-epoxy-N-formylmorphinan-6-one] with σ receptors labelled by [^3H](+)-pentazocine (σ1) (Cavia porcellus, UniProt Q60492).
< 5.00

pIC50 of O=CN1CC[C@]23CC(=O)CC[C@H]2[C@H]1Cc1c(O)ccc(O)c13 [Compound 1, 1,4-dihydroxy-N-formylmorphinan-6-one] on σ receptors labelled by [^3H](+)-pentazocine (σ1) (Cavia porcellus, UniProt Q60492)?
< 5.00

Provide the documented pIC50 with σ receptors labelled by [^3H](+)-pentazocine (σ1) (Cavia porcellus, UniProt Q60492) as the system for O=CN1CC[C@]23CC(=O)CC[C@H]2[C@H]1CC1=C3C(=O)C=CC1=O [Compound 2, 1,4-dione-N-formylmorphinan-6-one]
< 5.00

Give pIC50 (σ receptors labelled by [^3H](+)-pentazocine (σ1) (Cavia porcellus, UniProt Q60492)) of the following compound: CCCN1CCC[C@H](c2cccc(O)c2)C1 [(+)-3-PPP, reference compound]
7.17

----------
- experimentalSystem: k opioid receptors (Cavia porcellus, UniProt P41144)
- Construct: Membrane fractions were prepared from Sprague-Dawley rat or guinea pig brains; from tissue; host or cells: guinea pig brain (without cerebella) membranes
- protocolText: Opioid receptor binding assay, [3H]U69,593, guinea pig brain membranes
- testParameters: no specific binding; read-out: Ki, k opioid receptor
measuredQuantity: Ki

Which value of Ki has been reported for `O=CN1CC[C@]23CC(=O)CC[C@H]2[C@H]1CC1=C3C(=O)C=CC1=O` in the records?
> 10 µM

----------
- experimentalSystem: δ opioid receptors (Rattus norvegicus)
- Construct: Membrane fractions were prepared from Sprague-Dawley rat or guinea pig brains; from tissue; host or cells: Sprague-Dawley rat brain (without cerebella) membranes
- protocolText: Opioid receptor binding assay, [3H][Ile5,6]deltorphin II, rat brain membranes
- Parameters: species or system Sprague-Dawley rat
- testParameters: read-out: Opioid binding affinities Ki δ receptor; [3H][Ile5,6]deltorphin II, rat brain membranes
pKi: −log10 of the molar value.
measuredQuantity: pKi

Fill in the blank: the reported pKi of O=CN1CC[C@]23c4c5cccc4OC2C(=O)CC[C@H]3[C@H]1C5 (stereo in doubt) is ____.
< 5.00

Given the compound O=CN1CC[C@]23CC(=O)CC[C@H]2[C@H]1Cc1c(O)ccc(O)c13 [Compound 1, 1,4-dihydroxy-N-formylmorphinan-6-one] , what is its reported pKi?
< 5.00
